details: buffer; pH 7.4; 200.0 µM
measured_quantity: solubility kinetic

> print(dat)
                                    molecule   measured.quantity       obs.value
 1  O=C(C1=C(O)C(=O)N(CCOCCO)C1c1ccccn1)c1cccs1 (centres undefined)  solubility kinetic  > 0.0562 mg/mL
 2   COc1cc(N/C(N)=N/c2nc(C)cc(C)n2)cc(OC)c1  solubility kinetic  > 0.0452 mg/mL
 3  Cc1cc(/C=C(/C#N)C(=O)O)c(C)n1-c1cccc2ccccc12  solubility kinetic  > 0.0475 mg/mL
 4  O=S(=O)(NC1CCCCC1N1CCC(O)CC1)c1ccccc1 (centres undefined)  solubility kinetic  > 0.0508 mg/mL
 5  O=C(/C=C/c1ccccc1)OCCN1C(=O)c2ccccc2C1=O  solubility kinetic  < 0.0007 mg/mL
 6        Cc1ccc(-c2cc(C(=O)N3CCOCC3)no2)cc1  solubility kinetic  > 0.0408 mg/mL
 7  COc1ccc(/C=C/C(=O)NC2CCS(=O)(=O)C2)cc1 (centres undefined)  solubility kinetic  > 0.0443 mg/mL
 8   O=C(CC12CC3CC(CC(C3)C1)C2)NCc1ccc(F)cc1  solubility kinetic  < 0.0006 mg/mL
 9  CC(C)(C)CN1CCN(CC#Cc2ccccc2)CC1CCO (centres undefined)  solubility kinetic  > 0.0472 mg/mL
10  CCOC(=O)C1=C(COC(=O)[C@@H](NC(=O)c2cccc(C)c2)C(C)C)NC(=O)NC1C (some centres undefined)  solubility kinetic  > 0.0647 mg/mL
11        COc1ccccc1CNc1ncnc2cc(OC)c(OC)cc12  solubility kinetic     0.013 mg/mL
12  COc1ccc(C(=O)/C=C/c2ccc(N(C)C)cc2)c(OC)c1  solubility kinetic    0.0032 mg/mL
13  Nc1ccc(CCN2CCN(c3cccc(C(F)(F)F)c3)CC2)cc1  solubility kinetic  > 0.0524 mg/mL
14           CSc1ncccc1C(=O)OCC(=O)NCc1cccs1  solubility kinetic    0.0358 mg/mL
15  O=C(Nc1ccc(NC(=O)c2ccccc2Cl)cc1)c1cccnc1  solubility kinetic     0.003 mg/mL
16   O=C1CCC(C(=O)OCC(=O)Nc2cc(Cl)ccc2F)=NN1  solubility kinetic  > 0.0492 mg/mL
17  COc1ccc(C2C3=C(CCCC3=O)NC3=C2C(=O)c2ccccc23)cc1 (centres undefined)  solubility kinetic  < 0.0008 mg/mL
18    O=C(N[C@@H]1C[C@H]2CC[C@@H]1C2)c1ccco1  solubility kinetic    0.0298 mg/mL
19        O=C(COC(=O)c1cccc(Cl)c1)NCc1ccccc1  solubility kinetic    0.0046 mg/mL
20                          Cc1ccc2ncccc2c1N  solubility kinetic  > 0.0237 mg/mL
21        COCCn1c(=S)[nH]c2sc3c(c2c1=O)CCCC3  solubility kinetic  > 0.0445 mg/mL
22     COc1ccccc1-n1c(CCC(=O)O)ccc1-c1ccccc1  solubility kinetic  > 0.0482 mg/mL
23   O=C(c1ccco1)N1CCN(S(=O)(=O)c2ccccc2)CC1  solubility kinetic  > 0.0481 mg/mL
24          COc1ccc(N2C(=O)Cc3ccccc3C2=O)cc1  solubility kinetic    0.0393 mg/mL
